Biological target: SARS-CoV-2 RBD (RBD-2) (SARS-CoV-2)
Experiment: flow, HeLa-ACE2, mAb:RBD=4:1
Measured % inhibition of RBD binding to hACE2 by item

BINDER: L12.cP09D03 (antibody, V domains shown, human IgG1) VH: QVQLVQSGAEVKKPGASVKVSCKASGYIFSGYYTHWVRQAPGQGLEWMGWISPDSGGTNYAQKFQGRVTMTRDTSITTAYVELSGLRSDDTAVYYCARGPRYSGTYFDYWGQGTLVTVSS VL: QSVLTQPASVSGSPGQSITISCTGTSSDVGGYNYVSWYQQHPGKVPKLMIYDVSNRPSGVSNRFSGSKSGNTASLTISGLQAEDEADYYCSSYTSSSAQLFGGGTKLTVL
UNIT_SYMBOL: %
% inhibition of RBD binding to hACE2: 50.1
//
BINDER: L12.bP11C10 (antibody, V domains shown, human IgG1) VH: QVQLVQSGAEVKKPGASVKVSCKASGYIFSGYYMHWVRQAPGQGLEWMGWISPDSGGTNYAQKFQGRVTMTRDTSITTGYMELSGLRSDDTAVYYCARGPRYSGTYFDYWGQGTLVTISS VL: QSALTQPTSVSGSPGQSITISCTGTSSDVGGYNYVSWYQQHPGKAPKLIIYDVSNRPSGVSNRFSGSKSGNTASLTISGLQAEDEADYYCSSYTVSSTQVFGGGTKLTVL
UNIT_SYMBOL: %
% inhibition of RBD binding to hACE2: 54.1
//
BINDER: L12.cP08A09 (antibody, V domains shown, human IgG1) VH: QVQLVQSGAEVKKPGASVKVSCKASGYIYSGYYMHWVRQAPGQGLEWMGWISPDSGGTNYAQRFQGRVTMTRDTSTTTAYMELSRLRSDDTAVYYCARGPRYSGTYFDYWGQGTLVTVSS VL: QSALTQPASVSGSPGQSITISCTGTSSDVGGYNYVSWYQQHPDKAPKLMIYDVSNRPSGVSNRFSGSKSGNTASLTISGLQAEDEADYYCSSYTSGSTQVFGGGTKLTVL
UNIT_SYMBOL: %
% inhibition of RBD binding to hACE2: 49
//
BINDER: L12.cP08D10 (antibody, V domains shown, human IgG1) VH: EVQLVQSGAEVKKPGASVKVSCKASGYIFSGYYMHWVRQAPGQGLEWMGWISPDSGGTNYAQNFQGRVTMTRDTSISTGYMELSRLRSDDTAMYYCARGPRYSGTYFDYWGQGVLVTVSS VL: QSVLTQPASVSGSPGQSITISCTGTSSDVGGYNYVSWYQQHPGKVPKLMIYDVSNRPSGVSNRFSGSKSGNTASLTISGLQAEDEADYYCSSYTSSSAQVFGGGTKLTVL
UNIT_SYMBOL: %
% inhibition of RBD binding to hACE2: 13.2
